Target Of Assay: T1, human CXCR2 (human, UniProt P25025 1-360)
T1 construct: also called CXC chemokine receptor 2; hCXCR2
T1 sequence: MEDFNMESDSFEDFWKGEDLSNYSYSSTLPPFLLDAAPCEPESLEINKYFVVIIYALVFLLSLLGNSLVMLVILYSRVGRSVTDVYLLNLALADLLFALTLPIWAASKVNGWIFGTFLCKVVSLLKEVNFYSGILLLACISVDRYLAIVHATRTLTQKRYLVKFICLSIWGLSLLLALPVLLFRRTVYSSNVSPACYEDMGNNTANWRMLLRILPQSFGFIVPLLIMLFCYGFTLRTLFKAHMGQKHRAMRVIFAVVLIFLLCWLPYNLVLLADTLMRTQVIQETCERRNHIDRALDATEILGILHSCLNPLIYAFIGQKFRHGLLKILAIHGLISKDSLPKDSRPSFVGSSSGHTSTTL
Measurement Notes: flow cytometry, CXCR2-transfected Expi293F cells
Procedure: Harvested cells were resuspended in FACS buffer (1×PBS+0.5% (w/v) bovine serum albumin (BSA)+2 mM EDTA pH 7.2). Approximately 2×10⁵ cells were added per well in a 96-well round-bottomed plate. Cells were pelleted by centrifugation at 400 g for 5 mins at 4° C. and supernatants discarded. 25 μL of each test antibody or control antibody was added to the cells and incubated for 30 minutes at 4° C. Cells were washed twice in 100 μL FACS buffer followed by centrifugation at 400 g for 5 mins at 4° C. […]
# Max binding (MFI Percent of 4A8 WT) values compiled below
Provide a numeric answer, followed by its unit.

>>> result_value("BKO-4A8-101c (antibody, human IgG4 S228P, lambda, V domains shown) VH: EVQLLESGGGLVQPGGSLRLSCAASGFTFSSSTQSWVRQPPGKGLEWVSAISGRGRSTYYADSVKGRFTISRDNSKNTLYLQMNSLRAEDTAVYYCAIQAGYWGQGILVTVSS VL: QSALTQPPSASGSPGQSVTISCIGTSSDVGGYNYVSWYQQHPGKAPKLMIYEVSKRPSGVPDRFSGSKSGNTASLTVSGLQAEDEADYYCSSYAGSNNFGVFGGGTKLTVLG")
"89%"

For the next question, use this binder.
Exam item: Returns the measured Max binding (MFI Percent of 4A8 WT) for the input binder. Input: BKO-4A8-103c (antibody, human IgG4 S228P, lambda, V domains shown, IgG4 S228P, lambda) VH: EVQLLESGGGLVQPGGSLRLSCAASGFTFSSSTQSWVRQPPGKGLEWVSAISGSGGSTYYADSVKGRFTISRDNSKNTLYLQMNSLRAEDTAVYYCAIQMGYWGQGILVTVSS VL: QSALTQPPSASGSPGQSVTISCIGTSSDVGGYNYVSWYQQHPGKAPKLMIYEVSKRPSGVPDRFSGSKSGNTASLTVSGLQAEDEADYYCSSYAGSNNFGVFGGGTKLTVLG
Marked response: 72%

The measured values listed here are drawn from patent US20240301076A1.
